Numbers sourced from PubChem BioAssay AID1963868.

Assignment: determine reported IC50 for the given molecules.
Test system: KRAS PDC tumor spheroids (HUVEC+MSC), viability;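 note: spheroids exposed to compounds for seven days before readout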
assayDetails: Anticancer human tumor 254851-301-R-J1-PDC patient-derived colon carcinoma cell line growth inhibition [KRAS2]
condition: curve of first compound; second compound 10 µM

Query: IC50; subject: CCNC(=O)CC1N=C(c2ccc(Cl)cc2)c2cc(OC)ccc2-n2c(C)nnc21 (configuration not stated) + C=CC(=O)N1CCN(c2nc(=O)n(-c3c(C)ccnc3C(C)C)c3nc(-c4c(O)cccc4F)c(F)cc23)C(C)C1
> 10000 nM

Query: IC50; subject: CN(C)C/C=C/C(=O)Nc1cc2c(Nc3ccc(F)c(Cl)c3)ncnc2cc1O[C@H]1CCOC1 + C=CC(=O)N1CCN(c2nc(=O)n(-c3c(C)ccnc3C(C)C)c3nc(-c4c(O)cccc4F)c(F)cc23)C(C)C1
> 100 nM

Query: IC50; subject: COC(=O)c1ccc2c(C(=Nc3ccc(N(C)C(=O)CN4CCN(C)CC4)cc3)c3ccccc3)c(O)[nH]c2c1 + C=CC(=O)N1CCN(c2nc(=O)n(-c3c(C)ccnc3C(C)C)c3nc(-c4c(O)cccc4F)c(F)cc23)C(C)C1
> 10000 nM

Query: IC50; subject: CC(=O)Nc1cccc(-n2c(=O)n(C3CC3)c(=O)c3c(Nc4ccc(I)cc4F)n(C)c(=O)c(C)c32)c1 + CNCc1ccccc1-c1csc(C(C)Nc2nc(C)nc3cc(OC)c(OC)cc23)c1
< 0.1 nM

Query: IC50; subject: O=C(c1cc(Cc2n[nH]c(=O)c3ccccc23)ccc1F)N1CCN(C(=O)C2CC2)CC1 + CNCc1ccccc1-c1csc(C(C)Nc2nc(C)nc3cc(OC)c(OC)cc23)c1
< 31.6 nM

Query: IC50; subject: CC1OCC2(CCN(c3cnc(Sc4ccnc(N)c4Cl)c(N)n3)CC2)C1N (configuration not stated) + CNCc1ccccc1-c1csc(C(C)Nc2nc(C)nc3cc(OC)c(OC)cc23)c1
< 31.6 nM

Query: IC50; subject: CC1(C)CCC(CN2CCN(c3ccc(C(=O)NS(=O)(=O)c4ccc(NCC5CCOCC5)c([N+](=O)[O-])c4)c(Oc4cnc5[nH]ccc5c4)c3)CC2)=C(c2ccc(Cl)cc2)C1 + C=CC(=O)N1CCN(c2nc(=O)n(-c3c(C)ccnc3C(C)C)c3nc(-c4c(O)cccc4F)c(F)cc23)C(C)C1
> 10000 nM

Query: IC50; subject: Cn1ncnc1[C@H]1c2n[nH]c(=O)c3cc(F)cc(c23)N[C@@H]1c1ccc(F)cc1 + COc1cc2nc(C)nc(NC(C)c3cc(N)cc(C(F)(F)F)c3)c2cc1OC1CCOC1
> 100 nM

Query: IC50; subject: Cn1ncnc1[C@H]1c2n[nH]c(=O)c3cc(F)cc(c23)N[C@@H]1c1ccc(F)cc1 + CNCc1ccccc1-c1csc(C(C)Nc2nc(C)nc3cc(OC)c(OC)cc23)c1
< 0.316 nM

Query: IC50; subject: Cn1nccc1Nc1nccc(-c2cc3c(s2)C(C)(C)N(CCN2CCOCC2)C3=O)n1 + CNCc1ccccc1-c1csc(C(C)Nc2nc(C)nc3cc(OC)c(OC)cc23)c1
< 31.6 nM

Query: IC50; subject: CC(C)NCC(C(=O)N1CCN(c2ncnc3c2C(C)CC3O)CC1)c1ccc(Cl)cc1 (configuration not stated) + CC1OCC2(CCN(c3cnc(Sc4ccnc(N)c4Cl)c(N)n3)CC2)C1N
> 10000 nM

Query: IC50; subject: CC1OCC2(CCN(c3cnc(Sc4ccnc(N)c4Cl)c(N)n3)CC2)C1N (configuration not stated) + C=CC(=O)N1CCN(c2nc(=O)n(-c3c(C)ccnc3C(C)C)c3nc(-c4c(O)cccc4F)c(F)cc23)C(C)C1
> 10000 nM
